Taken from ChEMBL document CHEMBL4619783.

- TEST_PROTOCOL: Intrinsic clearance in mouse liver microsomes
- Format: ADME, Microsome
QUANTITY_KIND: CLH (mL/min/g)
Give bare numbers, in mL/min/g.

{"columns": ["MOLECULE", "QUANTITY_KIND", "READOUT_UNIT", "REPORTED_VALUE"],
 "data": [
  ["O=C(NCC1CC1)c1ncc2cccnc2c1O", "CLH", "mL/min/g", 13],
  ["Cc1n[nH]c(-c2nc(N3CCCCS3(=O)=O)c3cccnc3c2O)n1", "CLH", "mL/min/g", 0.6],
  ["Cc1n[nH]c(-c2nc(-c3ccccc3C(F)(F)F)c3cccnc3c2O)n1", "CLH", "mL/min/g", 1.4],
  ["COc1ccccc1-c1nc(C(=O)NCC2CC2)c(O)c2ncccc12", "CLH", "mL/min/g", 8],
  ["COc1ccccc1-c1nc(-c2nc(C)n[nH]2)c(OC)c2ncccc12", "CLH", "mL/min/g", 2]
]}

Give CLH for each of the items listed below.
1. Oc1c(-c2nc(CN3CCOCC3)n[nH]2)ncc2cccnc12
2. O=C(NCc1ccc(Cl)cc1)c1ccc2cccnc2c1O
3. Oc1c(-c2nc(C(O)c3ccccc3)n[nH]2)ncc2cccnc12 (centres undefined)

Completion:
1. 0.8
2. 19
3. 1.9

----------
- TEST_PROTOCOL: Selectivity index, ratio of EC50 for toxicity in human THP1 cells assessed as reduction in cell viability to EC50 for antileishmanial activity against Leishmania donovani amastigotes infected in human THP1 cells incubated for 96 hrs
- Type: cell-based
- SETUP_CONDITIONS: THP-1 cells, read-out: Ratio EC50
QUANTITY_KIND: selectivity ratio at 96 h

Prompt: # get_value(readout='selectivity ratio at 96 h', item= Oc1c(-c2nnc(Cc3ccc(Cl)cc3)[nH]2)ncc2cccnc12 )
Completion: 100

----------
- TEST_PROTOCOL: Kinetic aqueous solubility of the compound
- Assay type: physicochemical
- SETUP_CONDITIONS: buffer
QUANTITY_KIND: Kinetic_solubility

Example entries and their recorded answers appear below.
{"columns": ["COMPOUND", "REPORTED_VALUE"],
 "data": [
  ["Oc1c(-c2nc(CN3CCOCC3)n[nH]2)ncc2cccnc12", "219 µM"],
  ["O=C(NCc1ccc(Cl)cc1)c1ncc2cccnc2c1O", "> 250 µM"],
  ["O=C(NCc1ccc(Cl)cc1)c1ccc2cccnc2c1O", "219 µM"],
  ["O=C(NCc1ccc(Cl)cc1)c1ncc2ccccc2c1O", "39 µM"]
]}

Give Kinetic_solubility for each of the items listed below.
1. Oc1c(-c2nnc(Cc3ccc(Cl)cc3)[nH]2)ncc2cccnc12
2. Oc1c(-c2nc(C(O)c3ccccc3)n[nH]2)ncc2cccnc12 (stereo unspecified)
3. Cc1nnc(C(=O)NC(C)(C)c2nc(C(=O)NCc3ccc(F)cc3)c(O)c(=O)n2C)o1
4. O=C1CCCN1Cc1n[nH]c(-c2ncc3cccnc3c2O)n1
5. Cc1n[nH]c(-c2ncc3cccnc3c2O)n1
6. COc1ccccc1-c1nc(C(=O)N[C@H](C)c2ccc(F)cc2)c(O)c(=O)n1C
7. Cc1n[nH]c(-c2cc3ncccc3c(-c3ccccc3)n2)n1
8. COc1ccccc1-c1nc(-c2nc(C)n[nH]2)c(OC)c2ncccc12

Completion:
219 µM
> 250 µM
> 250 µM
> 250 µM
> 250 µM
173 µM
> 250 µM
> 250 µM

Give Kinetic_solubility for each of the items listed below.
1. CNC(=O)c1nc(-c2ccccc2OC)c2cccnc2c1O
2. COc1ccccc1-c1nc(-c2nnc(C)o2)c(O)c2ncccc12
3. COc1ccc(CNC(=O)c2ncc3cccnc3c2O)cc1
4. COc1ccc(CNC(=O)c2nn(C)c3cccnc3c2=O)cc1

Completion:
["219 µM", "> 250 µM", "> 250 µM", "> 250 µM"]

----------
Give measured solubility kinetic for each item. Keep answers brief.
- TEST_PROTOCOL: Kinetic aqueous solubility of the compound
- Type: physicochemical
- SETUP_CONDITIONS: buffer; read-out: Kinetic_solubility

Example entries and their recorded answers appear below.
{"columns": ["SMILES_NOTATION", "solubility kinetic"],
 "data": [
  ["COc1ccccc1-c1nc(C(=O)NCC2CC2)c(O)c2ncccc12", "> 250 µM"],
  ["Cc1n[nH]c(-c2nc(N(C)C)c3cccnc3c2O)n1", "> 250 µM"],
  ["Cc1n[nH]c(-c2nc(-c3ccccc3C(F)(F)F)c3cccnc3c2O)n1", "> 250 µM"],
  ["O=C(NCc1ccc(Cl)cc1)c1nc(N2CCOCC2)c2cccnc2c1O", "219 µM"]
]}

Give solubility kinetic for each of the items listed below.
1. C[C@@H](NC(=O)c1cn(C)c2cccnc2c1=O)c1ccc(F)cc1
2. Cc1n[nH]c(-c2nc(N3CCCCS3(=O)=O)c3cccnc3c2O)n1

Completion:
1: > 250 µM; 2: 250 µM

----------
- TEST_PROTOCOL: Toxicity in human THP1 cells assessed as reduction in cell viability
- Type: cell-based
- SETUP_CONDITIONS: THP-1 cells
pEC50: −log10 of the molar value.
Give measured pEC50 for each item. Keep answers brief.

{"columns": ["COMPOUND", "REPORTED_VALUE"],
 "data": [
  ["COc1ccc(CNC(=O)c2nn(C)c3cccnc3c2=O)cc1", "< 4.30"],
  ["COc1ccccc1-c1nc(C(=O)N[C@H](C)c2ccc(F)cc2)c(O)c(=O)n1C", "< 4.30"],
  ["O=C(NCC1CC1)c1ncc2cccnc2c1O", "< 4.30"],
  ["O=C(NCc1ccc(Cl)cc1)c1ncc2ccccc2c1O", "< 4.30"],
  ["COc1ccccc1-c1nc(C(=O)NCC2CC2)c(O)c2ncccc12", "< 4.30"]
]}

Give pEC50 for each of the items listed below.
1. COc1ccccc1-c1nc(-c2nnc(C)o2)c(O)c2ncccc12
2. C[C@@H]1[C@H](O)[C@@H](C)/C=C/C=C/C=C/C=C/C=C/C=C/C=C/[C@H](O[C@@H]2O[C@H](C)[C@@H](O)[C@H](N)[C@@H]2O)C[C@@H]2O[C@](O)(C[C@@H](O)C[C@@H](O)[C@H](O)CC[C@@H](O)C[C@@H](O)CC(=O)O[C@H]1C)C[C@H](O)[C@H]2C(=O)O [AMPHOTERICIN B]

Completion:
["< 4.30", "< 6.00"]

Give pEC50 for each of the items listed below.
1. O=C1CCCN1Cc1n[nH]c(-c2ncc3cccnc3c2O)n1
2. Cc1n[nH]c(-c2cc3ncccc3c(-c3ccccc3)n2)n1
3. Oc1c(-c2nc(CN3CCOCC3)n[nH]2)ncc2cccnc12
4. C[C@@H](NC(=O)c1cn(C)c2cccnc2c1=O)c1ccc(F)cc1
5. Oc1c(-c2nnc(Cc3ccc(F)cc3)[nH]2)ncc2cccnc12

Completion:
1: < 4.30; 2: < 4.30; 3: < 4.30; 4: < 4.30; 5: 4.40

Give pEC50 for each of the items listed below.
1. O=C(NCc1ccc(Cl)cc1)c1ncc2cccnc2c1O
2. CCCCCCCCCCCCCCCCOP(=O)([O-])OCC[N+](C)(C)C [MILTEFOSINE]
3. O=C(NCc1ccc(Cl)cc1)c1nc(N2CCOCC2)c2cccnc2c1O
4. Cc1nnc(C(=O)NC(C)(C)c2nc(C(=O)NCc3ccc(F)cc3)c(O)c(=O)n2C)o1 [RALTEGRAVIR]
5. Oc1c(-c2nnc(Cc3ccc(Cl)cc3)[nH]2)ncc2cccnc12
6. Cc1n[nH]c(-c2nc(N(C)C)c3cccnc3c2O)n1
7. COc1ccccc1-c1nc(-c2nc(C)n[nH]2)c(OC)c2ncccc12

Completion:
1: < 4.30; 2: < 4.30; 3: < 4.30; 4: < 4.30; 5: 4.50; 6: < 4.30; 7: < 4.30

Give pEC50 for each of the items listed below.
1. Oc1c(-c2nc(C(O)c3ccccc3)n[nH]2)ncc2cccnc12 (stereo unspecified)
2. COc1ccc(CNC(=O)c2ncc3cccnc3c2O)cc1
3. Cc1n[nH]c(-c2ncc3cccnc3c2O)n1
4. Cc1n[nH]c(-c2nc(-c3ccccc3C(F)(F)F)c3cccnc3c2O)n1
5. Cc1n[nH]c(-c2nc(N3CCCCS3(=O)=O)c3cccnc3c2O)n1
6. O=C(NCc1ccc(Cl)cc1)c1ccc2cccnc2c1O

Completion:
1: < 4.30; 2: < 4.30; 3: < 4.30; 4: < 4.30; 5: < 4.30; 6: 5.20

Prompt: # get_value(readout='pEC50', item= CNC(=O)c1nc(-c2ccccc2OC)c2cccnc2c1O )
Completion: 4.40

----------
- TEST_PROTOCOL: Distribution coefficient, logD of the compound at pH 7.4 by chromatography
- Format: physicochemical
- SETUP_CONDITIONS: octanol/water
QUANTITY_KIND: chromatographic logD
Give bare numbers.

Example entries and their recorded answers appear below.
{"columns": ["SMILES_NOTATION", "chromatographic logD"],
 "data": [
  ["O=C(NCC1CC1)c1ncc2cccnc2c1O", 3.3],
  ["Cc1n[nH]c(-c2nc(-c3ccccc3C(F)(F)F)c3cccnc3c2O)n1", 4.3]
]}

Give chromatographic logD for each of the items listed below.
1. Cc1n[nH]c(-c2nc(N3CCCCS3(=O)=O)c3cccnc3c2O)n1
2. Cc1n[nH]c(-c2nc(N(C)C)c3cccnc3c2O)n1

Completion:
1. 1.5
2. -0.6
